Attribute: solubility kinetic
Study Conditions: buffer; pH 7.4; 200.0 µM
Answer with a number only, understood to be in µg/mL.

See these solved cases before continuing.
{"columns": ["Compound", "Numeric Result"],
 "data": [
  ["CCC(CO)NCc1sccc1C (centres undefined)", 26.6],
  ["CCOC(=O)CSc1[nH]c2cc(OC)ccc2c1[N+](=O)[O-]", 29.3],
  ["COc1ccc(C(=O)Nc2ccc(NC(=O)C3CCCCC3)nc2)cc1", 0.4]
]}

Prompt: If you can, please state the reported solubility kinetic value of `CN(C)S(=O)(=O)c1ccc(C(=O)OCCc2ccccc2)cc1` .
Completion: 0.9

Prompt: If you can, please state the reported solubility kinetic value of `COC(=O)c1ccc(OC)c(Cn2c(=O)n(C)c(=O)c3ccccc32)c1` .
Completion: 2.2

Prompt: If you can, please state the reported solubility kinetic value of `Cn1c(N)c(C(=O)COC(=O)/C=C/c2ccc(Cl)c(Cl)c2)c(=O)n(C)c1=O` .
Completion: 2.9

Prompt: If you can, please state the reported solubility kinetic value of `Cc1cccn2c(=O)c(C=O)c(NCc3ccccc3)nc12` .
Completion: 0.2

Prompt: If you can, please state the reported solubility kinetic value of Cc1cc(OCC(O)CN2CCOCC2)cc(C)c1Cl.Cl (centres undefined) .
Completion: 45.2

Prompt: If you can, please state the reported solubility kinetic value of `C=CCNC(=O)CN1c2cccc3cccc(c23)S1(=O)=O` .
Completion: 40.4

Prompt: If you can, please state the reported solubility kinetic value of `O=c1c2ccc(Cl)cc2[nH]c(=S)n1-c1cccnc1` .
Completion: 10.8

Prompt: If you can, please state the reported solubility kinetic value of `Cc1ccc(S(=O)(=O)NC(=O)Nc2ccc(OC(F)F)cc2)cc1` .
Completion: 52.3

Prompt: If you can, please state the reported solubility kinetic value of Cc1ccc(NC(=O)COC(=O)C2CC2(Cl)Cl)cc1C (centres undefined) .
Completion: 47.1

Prompt: If you can, please state the reported solubility kinetic value of C/C=C/COC(=O)C1=C(C)NC(=O)NC1c1ccc2c(c1)OCO2 (centres undefined) .
Completion: 15.5

----------
Study Conditions: buffer; pH 7.4; 200.0 µM
Attribute: solubility kinetic
Answer with a number only, understood to be in µg/mL.

See these solved cases before continuing.
{"columns": ["Molecule", "Unit Spec", "solubility kinetic"],
 "data": [
  ["Cc1cc2nc(/N=C(\\N)NC(=O)C(C)C)nc(C)c2cc1C", "µg/mL", 2.9],
  ["Cc1nc2ccccc2cc1C(=O)N(C)Cc1ccccc1", "µg/mL", 43],
  ["Cn1c(CNc2ccc(O)cc2)nc2ccccc21", "µg/mL", 35],
  ["CSc1ccccc1C(=O)C1CCCN(Cc2ccccn2)C1 (configuration not stated)", "µg/mL", 44.8],
  ["CSc1nc(N)nc(N(C)C)n1", "µg/mL", 24.3]
]}

Prompt: If you can, please state the reported solubility kinetic value of `COc1cc(CN2CCCCCC2)c([N+](=O)[O-])cc1OC` .
Completion: 34.8

Prompt: If you can, please state the reported solubility kinetic value of `Br.COc1ccc(C2=CSC3=NCCN23)cc1Br` .
Completion: 54.4

----------
Study Conditions: buffer; pH 7.4; 200.0 µM
Recorded Metric: solubility kinetic (µg/mL)
Answer with a number only, understood to be in µg/mL.

See these solved cases before continuing.
{"columns": ["Molecule", "Recorded Metric", "Unit Spec", "Numeric Result"],
 "data": [
  ["COc1ccc(C(=O)NC(=S)NCc2ccco2)cc1", "solubility kinetic", "µg/mL", 4.6],
  ["COc1ccccc1NC(=O)c1coc(=O)c(Br)c1", "solubility kinetic", "µg/mL", 5.4],
  ["CC1(C)Cc2c(c(-c3ccccc3)nc3sc4c(=O)[nH]c(=S)[nH]c4c23)CO1", "solubility kinetic", "µg/mL", 10.5]
]}

Prompt: If you can, please state the reported solubility kinetic value of `Cc1cc(Oc2ccc([N+](=O)[O-])cc2)nc(N2CCOCC2)n1` .
Completion: 0.4

----------
Study Conditions: buffer; pH 7.4; 200.0 µM
Attribute: solubility kinetic
Answer with a number only, understood to be in µg/mL.

See these solved cases before continuing.
{"columns": ["Molecule", "Numeric Result"],
 "data": [
  ["CC(=O)Nc1ccc(NC(=O)c2cc(=O)c3cc(C)c(C)cc3o2)cc1", 0.6],
  ["Cn1cccc1C(=O)NCC(c1ccc(F)cc1)N1CCOCC1 (configuration not stated)", 47.3],
  ["CCc1cc2ccc(C)cc2nc1SCC(=O)NC1CCCC1", 1.2],
  ["CC(C)(C)C1CCC(N2CCN(c3ccccc3)CC2)CC1 (configuration not stated)", 0.5]
]}

Prompt: If you can, please state the reported solubility kinetic value of `Cc1ccc(CSC2=Nc3ccccc3C3=NC(=O)CN23)cc1` .
Completion: 4.9

----------
Study Conditions: buffer; pH 7.4; 200.0 µM
I would appreciate it if you labelled entries label 1 when solubility kinetic is 3 µg/mL or higher, otherwise label 0.

{"columns": ["Compound", "Class Label"],
 "data": [
  ["Cc1c(OCC(=O)N(C)C)ccc2c(-c3ccccc3)cc(=O)oc12", "label 1"],
  ["O=C(NCCCn1ccnc1)C(=O)NC1CCCCC1", "label 1"],
  ["CCN(c1ccccc1)S(=O)(=O)c1ccc(C(=O)NCC(=O)Nc2ccc(F)c(F)c2F)cc1", "label 0"],
  ["O=C(NC1CCN(c2ncccn2)CC1)c1cccc(F)c1", "label 1"],
  ["CC1CCCCC12NC(=O)N(CC(=O)c1ccc(Cl)s1)C2=O (configuration not stated)", "label 1"]
]}

Prompt: Hi, just wondering whether `COC(=O)c1cc(=O)n2c(sc3ccccc32)c1C#N` shows solubility kinetic of 3 µg/mL or higher.
Completion: label 0

Prompt: Hi, just wondering whether `Cl.NCCc1nnc(SCc2ccccc2Cl)o1` shows solubility kinetic of 3 µg/mL or higher.
Completion: label 1

Prompt: Hi, just wondering whether `c1ccc(CSc2cc3ccccc3[nH]2)cc1` shows solubility kinetic of 3 µg/mL or higher.
Completion: label 0

Prompt: Hi, just wondering whether `CN1CCN(CCC(=O)Nc2ccc(Br)cc2)CC1` shows solubility kinetic of 3 µg/mL or higher.
Completion: label 1

Prompt: Hi, just wondering whether `Cc1ccnc(NC(=O)c2ccc(Cl)cc2Cl)n1` shows solubility kinetic of 3 µg/mL or higher.
Completion: label 1

Prompt: Hi, just wondering whether `O=C(NNC(=S)Nc1ccccc1C(F)(F)F)c1cccnc1` shows solubility kinetic of 3 µg/mL or higher.
Completion: label 1

----------
Attribute: solubility kinetic
Study Conditions: buffer; pH 7.4; 200.0 µM
Answer with a number only, understood to be in µg/mL.

See these solved cases before continuing.
{"columns": ["Smiles Structure", "Recorded Metric", "Unit Spec", "Numeric Result"],
 "data": [
  ["CCCCCCCc1c(C#N)c(N)[nH]c(=S)c1C#N", "solubility kinetic", "µg/mL", 31.5],
  ["O=C1COc2ccccc2N1Cc1ccc(Cl)cc1", "solubility kinetic", "µg/mL", 10.3],
  ["Cc1ccccc1Nc1c(-c2ccccn2)nc2c(C)cccn12", "solubility kinetic", "µg/mL", 1],
  ["O=C1COc2ccc(C(=O)COC(=O)c3ccc(F)cc3Cl)cc2N1", "solubility kinetic", "µg/mL", 5.3]
]}

Prompt: If you can, please state the reported solubility kinetic value of `COC(=O)c1ccc(NC(=O)CCOc2ccccc2)cc1` .
Completion: 4.5

----------
Study Conditions: buffer; pH 7.4; 200.0 µM
I would appreciate it if you labelled entries class 1 when solubility kinetic is 30 µg/mL or higher, otherwise class 0.

Example cases with answers are listed next.
{"columns": ["Compound", "Class Label"],
 "data": [
  ["Cc1ccc(/C=C/c2ccc3cccc(O)c3n2)s1", "class 0"],
  ["Cc1cc2ncc(S(=O)(=O)C(C)(C)C)c(N)n2n1", "class 1"],
  ["O=c1[nH]c(=S)[nH]c2sc3c(c12)CCCCCC3", "class 0"]
]}

Prompt: Hi, just wondering whether `CCC(CC)C(=O)c1c[nH]c(C(=O)NCc2cccnc2)c1` shows solubility kinetic of 30 µg/mL or higher.
Completion: class 1

Prompt: Hi, just wondering whether `Cn1ccnc1SCC(=O)Nc1ccc2c(c1)OCCO2` shows solubility kinetic of 30 µg/mL or higher.
Completion: class 1

Prompt: Hi, just wondering whether `CC1(C)CC(NC(=O)C(=O)NCCc2ccccc2)CC(C)(C)N1` shows solubility kinetic of 30 µg/mL or higher.
Completion: class 1

Prompt: Hi, just wondering whether `CCOc1ccc(NC(=O)CNC(=O)c2ccco2)cc1` shows solubility kinetic of 30 µg/mL or higher.
Completion: class 1

Prompt: Hi, just wondering whether `O=[N+]([O-])c1ccc(NC(=S)N2CCCC2)cc1` shows solubility kinetic of 30 µg/mL or higher.
Completion: class 0

Prompt: Hi, just wondering whether CCNc1nc(NC(C)CC)nc(ON=C(C)C)n1 (configuration not stated) shows solubility kinetic of 30 µg/mL or higher.
Completion: class 1

Prompt: Hi, just wondering whether `O=S(=O)(Nc1ccc(C(F)(F)F)cc1)c1cccs1` shows solubility kinetic of 30 µg/mL or higher.
Completion: class 1

Prompt: Hi, just wondering whether `O=C(Nc1ccc(NC(=O)C2CC2)cn1)c1ccccc1` shows solubility kinetic of 30 µg/mL or higher.
Completion: class 1

Prompt: Hi, just wondering whether O=C1NCCCC1C(=O)N1CCCCC1 (configuration not stated) shows solubility kinetic of 30 µg/mL or higher.
Completion: class 1
